MEASUREMENT_PROTOCOL: NCI Yeast Anticancer Drug Screen. Data for the mlh1 rad18 strain (AID 175)
CONDITION: S. cerevisiae mlh1 rad18 strain growth inhibition; at 50.0 µM; stronger effect = higher value
Method: Growth inhibition of yeast strains with defined genetic alterations is measured as a screen for potential anti-cancer activity. Selected strains with alterations in DNA damage repair or cell cycle control were exposed to compounds and growth inhibition was measured relative to vehicle treated controls. The strain used in this assay is mlh1 rad18
Compounds without any hit were thinned out: in the full panel of roughly 79,000, 15% have a hit.
Decision: growth inhibition compared against 20%; not below it gives met, below it gives not met.

Exam item: decide whether the reported growth inhibition for CCOc1ccc(NC(=O)C2CCC(C)(C(=O)O)C2(C)C)cc1 (stereo unspecified) is at least 20%.
not met

Exam item: decide whether the reported growth inhibition for c1ccc2c(c1)OCCOCCOc1ccccc1OCCOCCO2 is at least 20%.
not met

Exam item: decide whether the reported growth inhibition for C[C@@H]1CC[C@H]2C(C)(C)[C@H]3C[C@@]12CC[C@@]3(C)O is at least 20%.
not met

Exam item: decide whether the reported growth inhibition for OCc1ccccn1 is at least 20%.
not met

Exam item: decide whether the reported growth inhibition for c1coc(-c2nc(N=C3N=c4ccccc4=N3)[nH]c2-c2ccco2)c1 is at least 20%.
not met

Exam item: decide whether the reported growth inhibition for COc1ccc2nc(N/N=C/c3ccc(C)s3)cc(C)c2c1 is at least 20%.
met

Exam item: decide whether the reported growth inhibition for O=C1NC(c2ccc3ccccc3c2)Nc2ccccc21 (stereo unspecified) is at least 20%.
not met

Exam item: decide whether the reported growth inhibition for CCCOC(=O)C(=O)C(C#N)c1ccccc1 (stereo unspecified) is at least 20%.
not met

Exam item: decide whether the reported growth inhibition for CC1CC2(OC2C)C(=O)OC2CCN(C)C/C=C(/COC(=O)C1(C)O)C2=O (stereo unspecified) is at least 20%.
not met

Exam item: decide whether the reported growth inhibition for O=C(O)C1=C(C2CCCCC2)C(=O)c2ccccc21 is at least 20%.
met

Exam item: decide whether the reported growth inhibition for N#CC1(c2ccc(Cl)cc2)CCCC1 is at least 20%.
not met

Exam item: decide whether the reported growth inhibition for O=C(O)c1ccccc1Oc1ccccc1C(=O)O is at least 20%.
not met

Exam item: decide whether the reported growth inhibition for Cc1ccc(S(=O)(=O)N2CCC(O)(c3ccccc3)CC2)cc1 is at least 20%.
not met

Exam item: decide whether the reported growth inhibition for CC(=O)c1ccc(NC(=O)/C(CC(=O)/C=C/c2ccccc2)=N/NC(N)=S)cc1 is at least 20%.
not met

Exam item: decide whether the reported growth inhibition for CN1C2CCC1CC(OC(=O)C(O)c1ccccc1)C2 (stereo unspecified) is at least 20%.
not met

Exam item: decide whether the reported growth inhibition for O=Cc1ccc2c(c1Cl)C(=O)c1ccccc1C2=O is at least 20%.
met

Exam item: decide whether the reported growth inhibition for O=C(N/N=C/c1ccc2c(c1)CCC2)c1cccc([N+](=O)[O-])c1 is at least 20%.
not met

Exam item: decide whether the reported growth inhibition for COC(=O)C1=CO[C@@H](OC2OC(CO)C(O)C(O)C2O)[C@H]2[C@@H](C)[C@@H](O)[C@@H](O)[C@@H]12 (stereo partly specified) is at least 20%.
not met

Exam item: decide whether the reported growth inhibition for Fc1ccccc1Nc1n[nH]c(=S)s1 is at least 20%.
met

Exam item: decide whether the reported growth inhibition for Cc1ccc(S(=O)(=O)NCN2C(=O)c3ccccc3C2=O)cc1 is at least 20%.
not met

Exam item: decide whether the reported growth inhibition for COc1ccc(C(=O)CC2CCCC(CC(=O)c3ccc(OC)cc3)N2C)cc1 (stereo unspecified) is at least 20%.
met

Exam item: decide whether the reported growth inhibition for CC1(c2ccc3ccccc3c2)CCC(=O)O1 (stereo unspecified) is at least 20%.
not met

Exam item: decide whether the reported growth inhibition for CCN(CC#N)c1ccc(Nc2cc(Cl)ccc2Cl)cc1 is at least 20%.
not met

Exam item: decide whether the reported growth inhibition for COc1cc([C@H]2OC[C@H]3[C@@H]2CO[C@@H]3c2cc(OC)c3c(c2)OCO3)cc(OC)c1OC is at least 20%.
not met

Exam item: decide whether the reported growth inhibition for CNC(=S)c1nnsc1N is at least 20%.
not met

Exam item: decide whether the reported growth inhibition for CCOC(=O)c1cc(C)nc2c1c(=O)n(-c1ccccc1)c(=O)n2CCCCN1CCN(c2ncccn2)CC1 is at least 20%.
not met

Exam item: decide whether the reported growth inhibition for CCCCCCCCOC(=O)C(=O)C(C#N)c1ccccc1 (stereo unspecified) is at least 20%.
not met

Exam item: decide whether the reported growth inhibition for N#C/C(=C1C=C(Br)/C(=N\O)C=C\1Cl)c1ccc(Cl)cc1 is at least 20%.
met

Exam item: decide whether the reported growth inhibition for CC(=O)C1=C(C)N2C(=NC3=C(CCc4ccccc43)C2c2ccc(Cl)cc2)S1 (stereo unspecified) is at least 20%.
not met

Exam item: decide whether the reported growth inhibition for CC(=O)C1=C(C)N2C(=NC3=C(CCc4ccccc43)C2c2cccc(Br)c2)S1 (stereo unspecified) is at least 20%.
not met

Exam item: decide whether the reported growth inhibition for COc1c(O)ccc(C2=Cc3ccc(O)cc3OC2)c1OC is at least 20%.
not met

Exam item: decide whether the reported growth inhibition for COc1cc(/C=N\Nc2ccccc2[N+](=O)[O-])cc(OC)c1OC is at least 20%.
not met

Exam item: decide whether the reported growth inhibition for c1ccc(-c2nc3ccc4ccccc4c3nc2-c2ccccc2)cc1 is at least 20%.
not met

Exam item: decide whether the reported growth inhibition for CC1=NN(c2ccccc2)C(=O)/C1=C\c1ccc(N(CCC#N)CCC#N)cc1 is at least 20%.
met

Exam item: decide whether the reported growth inhibition for CCOc1cccc(/C=C2\N=C(c3ccccc3)OC2=O)c1 is at least 20%.
not met

Exam item: decide whether the reported growth inhibition for Cc1ccccc1CC1c2[nH]c3ccccc3c2CCN1C (stereo unspecified) is at least 20%.
not met

Exam item: decide whether the reported growth inhibition for COc1ccc(N=C(C)C(C)=Nc2ccc(OC)cc2)cc1 is at least 20%.
not met

Exam item: decide whether the reported growth inhibition for O=c1oc(-c2ccc(Cl)cc2)nc2cc(Cl)ccc12 is at least 20%.
not met

Exam item: decide whether the reported growth inhibition for O=C(Nc1cccc(NC(=O)C(=O)C2CCC3=C(Sc4ccccc4N3)C2=O)n1)C(=O)C1CCC2=C(Sc3ccccc3N2)C1=O (stereo unspecified) is at least 20%.
not met

Exam item: decide whether the reported growth inhibition for CCOC(=O)CN1C(=O)C(=O)c2ccccc21 is at least 20%.
met

Exam item: decide whether the reported growth inhibition for COc1cc(/C=N/N2CCCCC2)cc(OC)c1OC is at least 20%.
not met

Exam item: decide whether the reported growth inhibition for CC1=C(/C=C/C(C)=C/C=C/C(C)=C/C(=O)Nc2ccc(O)cc2)C(C)(C)CCC1 is at least 20%.
not met

Exam item: decide whether the reported growth inhibition for O=C(O)CSCc1nc2ccccc2[nH]1 is at least 20%.
met

Exam item: decide whether the reported growth inhibition for O=c1oc(/C=C/c2ccccc2)nc2cc(Cl)ccc12 is at least 20%.
not met

Exam item: decide whether the reported growth inhibition for O=C1c2ccccc2-c2c1c1ccccc1c(=O)n2CCO is at least 20%.
met

----------
MEASUREMENT_PROTOCOL: NCI Yeast Anticancer Drug Screen. Data for the rad50 strain (AID 155);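 further: 0% = growth of vehicle-only cultures of the same strain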
CONDITION: S. cerevisiae rad50 strain growth inhibition; at 50.0 µM; stronger effect = higher value
This is part of a sample that, as a whole, favours compounds with a hit. Of some 79,000 tested, about 15% had one in any assay.
PARAMETER: growth inhibition (%)
// return numeric value only (unit: %, not printed)

// sample C/C=C1\NC(=O)[C@H]2CSSCCC=C[C@H](CC(=O)N[C@H](C(C)C)C(=O)N2)OC(=O)[C@H](C(C)C)NC1=O , its growth inhibition was 26.1

// sample CCCCCCCCCCCCC/C=C/[C@H]1[C@@H](C(=O)OC)N1S(=O)c1ccc(C)cc1 (stereo not given in full) , its growth inhibition was -15.1

// sample Fc1ccc(Nc2nc(Cl)c3[nH]cnc3n2)cc1Cl , its growth inhibition was 11.5

// sample CC(=O)CC(=O)N1CCN(C(=O)CC(C)=O)CC1 , its growth inhibition was -16.9

// sample CC1CCN(c2ccc([N+](=O)[O-])cc2[N+](=O)[O-])CC1 , its growth inhibition was 42.2

----------
MEASUREMENT_PROTOCOL: NCI Yeast Anticancer Drug Screen. Data for the mlh1 rad18 strain (AID 175)
CONDITION: S. cerevisiae mlh1 rad18 strain growth inhibition; at 50.0 µM; stronger effect = higher value
This is part of a sample that, as a whole, favours compounds with a hit. Of some 79,000 tested, about 15% had one in any assay. Activity calls are given as the source filed them. Cut-off read from the data, not from the text of the source: active = growth inhibition above about 70%; inactive = the rest.
Kindly supply the reported growth inhibition values for the records listed here.

// sample CCN(CC)CCCOC(=O)N(Cc1ccc(Cl)cc1)C1CC1 , its growth inhibition was 46.6% (inactive)

// sample C1CCCCNCCC1 , its growth inhibition was -27.3% (inactive)

// sample CC(C)c1nc(-c2ccccc2)c(-c2ccccc2)[nH]1 , its growth inhibition was 54.7% (inactive)

// sample N#CCC(=O)OCCCCOC(=O)CC#N , its growth inhibition was 15.4% (inactive)

// sample O=C1c2ccccc2C(=O)N1/N=C/c1ccc2c(c1)OCO2 , its growth inhibition was 18.4% (inactive)

// sample CCOc1ccc(N2C(=O)C3C4c5ccccc5C(c5ccccc54)C3C2=O)cc1 (configuration not stated) , its growth inhibition was 29% (inactive)

// sample CC1CC(C)(C)N=C(Cc2ccccc2)O1 (configuration not stated) , its growth inhibition was 2.05% (inactive)
